# MC3R selectivity (relative to MC4R) annotations
target_system: human MC3R (human, UniProt P41968 1-323)
Sequence (P41968 whole entry): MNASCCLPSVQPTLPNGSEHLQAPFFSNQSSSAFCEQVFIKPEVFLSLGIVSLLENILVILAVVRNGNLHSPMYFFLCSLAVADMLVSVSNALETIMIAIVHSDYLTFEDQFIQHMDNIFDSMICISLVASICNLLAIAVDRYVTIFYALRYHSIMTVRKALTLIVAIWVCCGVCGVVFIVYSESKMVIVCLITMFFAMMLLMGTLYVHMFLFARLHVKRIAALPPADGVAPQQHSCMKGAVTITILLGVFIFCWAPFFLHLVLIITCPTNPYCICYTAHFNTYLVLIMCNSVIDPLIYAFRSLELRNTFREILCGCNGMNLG
assay_method_text: cell-based or functional assay
Non-standard residues stand in square brackets, D forms with d. d(αMeW) = C[C@@](N)(Cc1c[nH]c2ccccc12)C(=O)O; NMeH = CN[C@@H](Cc1c[nH]cn1)C(=O)O; Nle = CCCC[C@H](N)C(=O)O
The answer should be a number; do not append a unit.

Ac-[Nle][dA]HFR[dW]ARFG-OH (SMILES CCCC[C@H](NC(C)=O)C(=O)N[C@H](C)C(=O)N[C@@H](Cc1c[nH]cn1)C(=O)N[C@@H](Cc1ccccc1)C(=O)N[C@@H](CCCNC(=N)N)C(=O)N[C@H](Cc1c[nH]c2ccccc12)C(=O)N[C@@H](C)C(=O)N[C@@H](CCCNC(=N)N)C(=O)N[C@@H](Cc1ccccc1)C(=O)NCC(=O)O) [CTX-1528]    182
Ac-[Nle][dA]HFR[d(αMeW)]DRFG-OH (SMILES CCCC[C@H](NC(C)=O)C(=O)N[C@H](C)C(=O)N[C@@H](Cc1c[nH]cn1)C(=O)N[C@@H](Cc1ccccc1)C(=O)N[C@@H](CCCNC(=N)N)C(=O)N[C@](C)(Cc1c[nH]c2ccccc12)C(=O)N[C@@H](CC(=O)O)C(=O)N[C@@H](CCCNC(=N)N)C(=O)N[C@@H](Cc1ccccc1)C(=O)NCC(=O)O) [CTX-1510]    23

Now for the binder whose MC3R selectivity (relative to MC4R) we want.
# input Quickly give me recorded MC3R selectivity (relative to MC4R) for Ac-[Nle][dA][NMeH]FR[dW]DRFG-OH (SMILES CCCC[C@H](NC(C)=O)C(=O)N[C@H](C)C(=O)N(C)[C@@H](Cc1c[nH]cn1)C(=O)N[C@@H](Cc1ccccc1)C(=O)N[C@@H](CCCNC(=N)N)C(=O)N[C@H](Cc1c[nH]c2ccccc12)C(=O)N[C@@H](CC(=O)O)C(=O)N[C@@H](CCCNC(=N)N)C(=O)N[C@@H](Cc1ccccc1)C(=O)NCC(=O)O) [CTX-1186]
# output 1880
